# method notes: Solubility in simulated gastric/intestinal fluids and pH media
# Assay type: physicochemical
# experimental parameters: fasted-state simulated intestinal fluid (Phares FaSSIF), pH 6.5, fassif, thermodynamic from solid, Batch 1, Phares FaSSif pH 6.5, 24 hr
Counter-ions that a name gives are not always drawn.
experimental endpoint: solubility at 24 hr (µg/mL)
The figure you give is taken to be in µg/mL; do not add the unit.

Could you share which solubility at 24 hr value was measured for Cc1c(F)cccc1NC(=O)Nc1ccc(Cl)c(S(=O)(=O)[C@H]2CCCNC2)c1O [HBr Salt] ?
64

###

# method notes: Solubility in simulated gastric/intestinal fluids and pH media
# Format: physicochemical
# experimental parameters: fasted-state simulated intestinal fluid (Phares FaSSIF), pH 6.5, fassif, thermodynamic from solid, Batch 1, Phares FaSSif pH 6.5, 4 hr
Structures can show the parent of a compound that is named as a salt.
experimental endpoint: solubility at 4 hr (µg/mL)
Answer in µg/mL, number only, no unit symbol.

So what's the measured solubility at 4 hr for this one? Cc1c(F)cccc1NC(=O)Nc1ccc(Cl)c(S(=O)(=O)[C@H]2CCCNC2)c1O [HBr Salt]
384
